target: T1, Human ST2 (human, UniProt Q01638 19-328, limits assumed)
T1 construct: also called human ST2 protein; Interleukin 1 receptor-like 1
T1 sequence (looked up): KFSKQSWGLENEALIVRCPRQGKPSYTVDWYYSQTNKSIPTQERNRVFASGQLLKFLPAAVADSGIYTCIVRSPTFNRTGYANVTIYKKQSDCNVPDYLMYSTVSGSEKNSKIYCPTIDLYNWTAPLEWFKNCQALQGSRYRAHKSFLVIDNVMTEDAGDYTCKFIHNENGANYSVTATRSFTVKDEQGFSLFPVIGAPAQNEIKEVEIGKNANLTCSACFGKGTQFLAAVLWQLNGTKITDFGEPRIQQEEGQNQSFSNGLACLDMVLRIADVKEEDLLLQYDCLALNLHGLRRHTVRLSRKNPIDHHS
experimentSummary: SPR (Carterra), antibody immobilized, ST2 analyte, 1:1
testReadout: kon (M⁻¹ s⁻¹)
// note: answer is a bare numeric in M⁻¹ s⁻¹

Per the record, Human ST2 IgG1 Antibody 103 (antibody, V domains shown, IgG1, kappa; also called ST2 Antibody 103) VH: QVQLVQSGAEVKKPGASVKVSCKASGYTFTSYYMHWVRQAPGQGLEWMGWMNPNSGNTGYAQKFQGRVTMTRDTSTSTVYMELSSLRSEDTAVYYCARETSFDYYYGMDVWGQGTTVTVSS VL: DIQMTQSPSSLSASVGDRVTITCRASQSISNWLAWYQQKPGKAPKLLIYDGSNLGTGVPSRFSGSGSGTDFTLTISSLQPEDFATYYCLQDFTYPLTFGGGTKVEIKR has kon of 45000

Per the record, Human ST2 IgG1 Antibody 105 (antibody, V domains shown, IgG1, kappa) VH: EVQLLESGGGLVQPGGSLRLSCAASGFTFSSYAMHWVRQAPGKGLEWVAVMSYDGRHEYYADSVKGRFTISRDNSKNTLYLQMNSLRAEDTAVYYCASTDYDIGGYSLPLDYWGQGTLVTVSS VL: DIQMTQSPSSLSASVGDRVTITCRASQSVSSWLAWYQQKPGKAPKLLIYAASNLQSGVPSRFSGSGSGTDFTLTISSLQPEDFATYYCQQSYDVPWTFGQGTRLEIKR has kon of 370000

Per the record, Human ST2 IgG1 Antibody 106 (antibody, V domains shown, IgG1, kappa) VH: QVQLVQSGAEVKKPGSSVKVSCKASGYTFTDYYIHWVRQAPGQGLEWMGGIIPIYGTANYAQKFQGRVTITADESTSTAYMELSSLRSEDTAVYYCARTNWGMDVWGQGTTVTVSS VL: EIVMTQSPATLSVSPGERATLSCRASQGIPSNSLAWYQQKPGQAPRLLIYGTSARASGIPARFSGSGSGTEFTLTISSLQSEDFAVYYCQQYYSTPWTFGQGTKVEIKR has kon of 240000

Cited source: patent US20210403579A1
